# Tested on: U2OS
# Procedure details: Multiplex assay against U2OS
# Format: toxicity, cell-based
# Condition set: human, 48 h, 10 µM, compound concentration 10 uM, replicate 2
Measured metric: Population Hoechst High Intensity Objects (%)

>>> quantitative_readout("CC(=O)c1cc(-c2cc(C(=O)NC3CC3)ccc2C)c2ncccn12")
4
>>> quantitative_readout("Cl.Cl.Nc1ncnc2c1c(-c1cccc(OCc3ccccc3)c1)cn2[C@H]1C[C@@H](CN2CCC2)C1")
23
>>> quantitative_readout("COc1cc2c(NC3CCN(C(C)C)CC3)nc(N3CCC(F)(F)CC3)nc2cc1OCCCN1CCCC1")
12
>>> quantitative_readout("Nc1nc2c(c(N3CCNCC3)n1)CCC1=C2[C@@H]2CCCC[C@@H]2O1")
12
>>> quantitative_readout("Cc1cc2c(cc1N1C(=O)c3cccc4c(CCCO)ccc(c34)C1=O)n(C)c(=O)n2C")
8

###

# Test system: Fibroblast
# Procedure details: Multiplex assay against human fibroblast
# Format: toxicity, cell-based
# Condition set: 12 h, 1 µM, compound concentration 1 uM, replicate 1
# Population Fragmented Nuclei (%) annotations
Measured metric: Population Fragmented Nuclei (%)

>>> quantitative_readout("c1ccc2oc(-c3csc(C4CCN(Cc5nc6ncccc6[nH]5)CC4)n3)cc2c1")
30
>>> quantitative_readout("CNC(=O)c1cc(Oc2ccc(NC(=O)Nc3cc(C(C)(C)C)nn3-c3ccc4ncccc4c3)c(F)c2)ccn1")
24
>>> quantitative_readout("CCc1cc2c(cc1CC)CC(NC[C@H](O)c1ccc(O)c3[nH]c(=O)ccc13)C2")
22
>>> quantitative_readout("CNc1oc(-c2cccc3ccccc23)nc1C#N")
65
>>> quantitative_readout("CC(=O)c1cc(-c2cc(C(=O)NC3CC3)ccc2C)c2ncccn12")
28
>>> quantitative_readout("COc1cc2c(Nc3ccc(NC(=O)c4ccccc4)cc3)ncnc2cc1OCCCN1CCOCC1")
25
>>> quantitative_readout("O=C(O)c1ccc2cc(-c3ccc(O)c(C45CC6CC(CC(C6)C4)C5)c3)ccc2c1")
36
>>> quantitative_readout("CC(C)N1CCC(C)(C)c2cc(C#Cc3ccc(C(=O)O)cc3)ccc21")
42
>>> quantitative_readout("Nc1nc2c(c(N3CCNCC3)n1)CCC1=C2[C@@H]2CCCC[C@@H]2O1")
37
>>> quantitative_readout("COc1ccc(NS(=O)(=O)c2sc3ccc(Cl)cc3c2C)cc1N1CCNCC1.Cl")
25
>>> quantitative_readout("COc1cc(N2CCC(N(C)C)CC2)ccc1Nc1ncc(Cl)c(Nc2ccccc2P(C)(C)=O)n1")
26
>>> quantitative_readout("Cl.Cl.Nc1ncnc2c1c(-c1cccc(OCc3ccccc3)c1)cn2[C@H]1C[C@@H](CN2CCC2)C1")
31
>>> quantitative_readout("Cc1nc(Cc2cccc(C(F)(F)F)c2)sc1-c1ccc(C(N)=O)nc1 [TP-024n]")
16
>>> quantitative_readout("CCCn1c(=O)c2[nH]c(C34CC5CC(CC3C5)C4)nc2n(CCC)c1=O")
13
>>> quantitative_readout("CC(C)Oc1ccc(C(=O)N[C@H](CNC(=O)CN(C)C)Cc2ccc(-c3cn4cccc([C@H](C)O)c4n3)cc2)cc1Cl [GSK-923295A]")
32
>>> quantitative_readout("Cl.Cl.NC1(c2ccc(-c3nc4ccn5c(=O)[nH]nc5c4cc3-c3ccccc3)cc2)CCC1")
35
>>> quantitative_readout("Cc1cn(-c2cc(NC(=O)c3ccc4c(c3)CN(c3cncnc3)C[C@@H]4C)cc(C(F)(F)F)c2)cn1")
31
>>> quantitative_readout("N#Cc1cnc(Nc2cc(NC[C@H]3CNCCO3)c(C(F)(F)F)cn2)cn1")
23

###

# System: HEK-293T
# Procedure details: Multiplex assay against HEK293T
# Type: toxicity, cell-based
# Condition set: human, 12 h, 10 µM, compound concentration 10 uM, replicate 2
Rule: measured Population Membrane Permeable-Phenotype (%) below 9% gets Condition met; anything equal to or greater than 9% gets Condition not met.

>>> class_name("Cc1nc(Cc2cccc(C(F)(F)F)c2)sc1-c1ccc(C(N)=O)nc1 [TP-024n]")
"Condition met"
>>> class_name("CCn1c(-c2nonc2N)nc2cnc(Oc3cccc(NC(=O)c4ccc(OCCN5CCOCC5)cc4)c3)cc21 [GSK-269962A]")
"Condition met"
>>> class_name("CCOc1cc(N2CCC(O)CC2)ccc1Nc1ncc2c(n1)N(C1CCCC1)CCC(=O)N2C")
"Condition met"
>>> class_name("Nc1nc2c(c(N3CCNCC3)n1)CCC1=C2[C@@H]2CCCC[C@@H]2O1")
"Condition met"
>>> class_name("N#Cc1cnc(Nc2cc(NC[C@H]3CNCCO3)c(C(F)(F)F)cn2)cn1")
"Condition met"
>>> class_name("Cl.Cl.NC1(c2ccc(-c3nc4ccn5c(=O)[nH]nc5c4cc3-c3ccccc3)cc2)CCC1")
"Condition not met"

###

# Population Hoechst High Intensity Objects (%) annotations
# Tested on: U2OS
# Procedure details: Multiplex assay against U2OS
# Format: toxicity, cell-based
# Condition set: human, 48 h, 10 µM, compound concentration 10 uM, replicate 1
Measured metric: Population Hoechst High Intensity Objects (%)

>>> quantitative_readout("CNc1oc(-c2cccc3ccccc23)nc1C#N")
43
>>> quantitative_readout("Nc1nc2c(c(N3CCNCC3)n1)CCC1=C2[C@@H]2CCCC[C@@H]2O1")
18
>>> quantitative_readout("Cl.Cl.Nc1ncnc2c1c(-c1cccc(OCc3ccccc3)c1)cn2[C@H]1C[C@@H](CN2CCC2)C1")
12
>>> quantitative_readout("Cc1nc(Cc2cccc(C(F)(F)F)c2)sc1-c1ccc(C(N)=O)nc1 [TP-024n]")
5

###

# Population Pyknosed Nuclei (%) annotations
# Tested on: Fibroblast
# Procedure details: Multiplex assay against human fibroblast
# Format: toxicity, cell-based
# Condition set: 48 h, 10 µM, compound concentration 10 uM, replicate 1
Measured metric: Population Pyknosed Nuclei (%)

>>> result("COc1cc2c(NC3CCN(C(C)C)CC3)nc(N3CCC(F)(F)CC3)nc2cc1OCCCN1CCCC1")
"35%"
>>> result("CC(=O)c1cc(-c2cc(C(=O)NC3CC3)ccc2C)c2ncccn12")
"17%"
>>> result("Cc1nc(Cc2cccc(C(F)(F)F)c2)sc1-c1ccc(C(N)=O)nc1 [TP-024n]")
"16%"
>>> result("Cc1cc2c(cc1N1C(=O)c3cccc4c(CCCO)ccc(c34)C1=O)n(C)c(=O)n2C")
"10%"
>>> result("CCCn1c(=O)c2[nH]c(C34CC5CC(CC3C5)C4)nc2n(CCC)c1=O")
"21%"

###

# System: HEK-293T
# Procedure details: Multiplex assay against HEK293T
# Format: toxicity, cell-based
# Condition set: human, 12 h, 10 µM, compound concentration 10 uM, replicate 2
Assign t to entries whose Population Pyknosed Nuclei (%) meets or exceeds 20%; assign f to the rest.

>>> class_name("COc1cc2c(Nc3ccc(NC(=O)c4ccccc4)cc3)ncnc2cc1OCCCN1CCOCC1")
"f"
>>> class_name("CC(C)(C)c1cnc(CSc2cnc(NC(=O)C3CCNCC3)s2)o1")
"f"
>>> class_name("Cc1cn(-c2cc(NC(=O)c3ccc4c(c3)CN(c3cncnc3)C[C@@H]4C)cc(C(F)(F)F)c2)cn1")
"f"
>>> class_name("CCC(=O)O[C@]1(C(=O)SCF)[C@H](C)C[C@H]2[C@@H]3C[C@H](F)C4=CC(=O)C=C[C@]4(C)[C@@]3(F)[C@@H](O)C[C@@]21C [FLUTICASONE PROPIONATE]")
"t"
>>> class_name("Cc1nc(Cc2cccc(C(F)(F)F)c2)sc1-c1ccc(C(N)=O)nc1 [TP-024n]")
"t"
>>> class_name("CNc1oc(-c2cccc3ccccc23)nc1C#N")
"f"
>>> class_name("CNC(=O)c1cc(Oc2ccc(NC(=O)Nc3cc(C(C)(C)C)nn3-c3ccc4ncccc4c3)c(F)c2)ccn1")
"f"
>>> class_name("CC(=O)c1cc(-c2cc(C(=O)NC3CC3)ccc2C)c2ncccn12")
"t"
>>> class_name("COc1cc2c(NC3CCN(C(C)C)CC3)nc(N3CCC(F)(F)CC3)nc2cc1OCCCN1CCCC1")
"t"

###

# System: HEK-293T
# Procedure details: Multiplex assay against HEK293T
# Format: toxicity, cell-based
# Condition set: human, 48 h, 1 µM, compound concentration 1 uM, replicate 1
Assign class 1 to entries whose Population Hoechst High Intensity Objects (%) meets or exceeds 20%; assign class 0 to the rest.

>>> class_name("CCCn1c(=O)c2[nH]c(C34CC5CC(CC3C5)C4)nc2n(CCC)c1=O")
"class 1"
>>> class_name("CCc1cc2c(cc1CC)CC(NC[C@H](O)c1ccc(O)c3[nH]c(=O)ccc13)C2")
"class 0"
>>> class_name("Cl.Cl.Nc1ncnc2c1c(-c1cccc(OCc3ccccc3)c1)cn2[C@H]1C[C@@H](CN2CCC2)C1")
"class 1"
>>> class_name("O=C(O)c1ccc2cc(-c3ccc(O)c(C45CC6CC(CC(C6)C4)C5)c3)ccc2c1")
"class 0"
>>> class_name("COc1cc2c(NC3CCN(C(C)C)CC3)nc(N3CCC(F)(F)CC3)nc2cc1OCCCN1CCCC1")
"class 1"
>>> class_name("COc1ccc(NS(=O)(=O)c2sc3ccc(Cl)cc3c2C)cc1N1CCNCC1.Cl")
"class 1"
>>> class_name("CCC(=O)O[C@]1(C(=O)SCF)[C@H](C)C[C@H]2[C@@H]3C[C@H](F)C4=CC(=O)C=C[C@]4(C)[C@@]3(F)[C@@H](O)C[C@@]21C [FLUTICASONE PROPIONATE]")
"class 0"
>>> class_name("Cc1cc2c(cc1N1C(=O)c3cccc4c(CCCO)ccc(c34)C1=O)n(C)c(=O)n2C")
"class 0"
>>> class_name("CC(C)N1CCC(C)(C)c2cc(C#Cc3ccc(C(=O)O)cc3)ccc21")
"class 0"
>>> class_name("CC(=O)c1cc(-c2cc(C(=O)NC3CC3)ccc2C)c2ncccn12")
"class 0"
>>> class_name("CCn1c(-c2nonc2N)nc2cnc(Oc3cccc(NC(=O)c4ccc(OCCN5CCOCC5)cc4)c3)cc21 [GSK-269962A]")
"class 0"
>>> class_name("CNc1oc(-c2cccc3ccccc23)nc1C#N")
"class 1"
>>> class_name("Cc1nc(Cc2cccc(C(F)(F)F)c2)sc1-c1ccc(C(N)=O)nc1 [TP-024n]")
"class 0"
>>> class_name("Nc1nc2c(c(N3CCNCC3)n1)CCC1=C2[C@@H]2CCCC[C@@H]2O1")
"class 0"
